Molecular target: T1, human CD33 extracellular domain (human, UniProt P20138 18-259)
T1 construct: soluble monomeric ECD; also called human CD33 ECD; hCD33
Test: BLI Octet, IgG loaded;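 also: IgGs captured on AHC biosensors, exposed to 100 nM antigen for 3 min association then 3 min dissociation in buffer, kinetics fitted with a 1:1 binding model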
value kind: kon (M⁻¹ s⁻¹)
One number for each entry, in M⁻¹ s⁻¹.

Sample records with kon:
ADI-11807 IgG (antibody, V domains shown, IgG; also called Ab5; I07) VH: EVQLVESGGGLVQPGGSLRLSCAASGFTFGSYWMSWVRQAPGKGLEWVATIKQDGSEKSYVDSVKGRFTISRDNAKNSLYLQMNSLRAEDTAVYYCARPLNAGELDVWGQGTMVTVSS VL: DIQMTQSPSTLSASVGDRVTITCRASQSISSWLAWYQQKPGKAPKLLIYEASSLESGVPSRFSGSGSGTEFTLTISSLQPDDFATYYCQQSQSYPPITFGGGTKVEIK: 651000
ADI-10177 IgG (antibody, V domains shown, IgG; also called Ab2) VH: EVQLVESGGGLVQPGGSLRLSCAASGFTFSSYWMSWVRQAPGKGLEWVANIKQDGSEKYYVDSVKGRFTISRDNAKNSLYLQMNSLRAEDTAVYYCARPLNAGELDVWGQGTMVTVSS VL: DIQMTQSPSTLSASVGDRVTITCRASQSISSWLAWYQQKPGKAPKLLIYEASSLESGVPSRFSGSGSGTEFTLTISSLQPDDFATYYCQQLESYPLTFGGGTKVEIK: 601000

Please look at the following binder next.
query: Name the recorded kon of the item ADI-11835 IgG (antibody, V domains shown, IgG; also called Ab10; I35) VH: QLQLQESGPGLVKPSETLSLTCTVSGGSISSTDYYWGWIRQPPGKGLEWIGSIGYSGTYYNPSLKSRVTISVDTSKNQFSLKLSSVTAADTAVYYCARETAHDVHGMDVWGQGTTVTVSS VL: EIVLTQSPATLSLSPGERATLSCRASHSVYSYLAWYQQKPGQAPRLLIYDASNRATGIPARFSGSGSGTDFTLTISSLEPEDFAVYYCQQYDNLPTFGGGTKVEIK in your answer.
result: 844000
